measured_target: PAP complex: preformed immune complex of peroxidase and rabbit anti-peroxidase IgG (horseradish) (UniProt P00433)
protocol_details: reverse ELISA competition: PAP pre-incubated with peptide, then on plate coated with FcγIIa (R131 allele); signal is PAP left bound to the receptor
OD405 overview
value_type: OD405 (OD405)

>>> df
                                     binder  value_type  test_value
0  APPCAFHLGELVWCT [Peptide … (SEQ ID NO:18)]       OD405       0.605
1   DCAFHLGELVWCT [Peptide … (SEQ ID NO:3)]       OD405        0.66
2  APPCAWHLGELVWCT [Peptide … (SEQ ID NO:14)]       OD405       0.658
3  APPDCAWHLGELVWCT [Peptide … (SEQ ID NO:20)]       OD405       0.509
4  APPCARHLGELVWCT [Peptide … (SEQ ID NO:16)]       OD405       0.956
